Tested on: NCI-H23
Assay: NCI tumour cell line growth inhibition, 48 h
The source made the active and inactive calls. No stated cut-off is given here; in the data, active = GI50 up to about 1.1 µM and inactive = higher.
Possible outcomes: Yes = active, No = inactive

Compound	Qualitative Label
COc1cc(Cn2c3c(c4c(CN(C)C)c(O)ccc42)C(=O)c2ccccc2C3=O)cc(OC)c1	No
COc1ccc(N2C(=O)CC(=O)N(C(=O)CCCCCCCCC(=O)N3C(=O)CC(=O)N(c4ccc(OC)cc4)C3=S)C2=S)cc1	No
O=c1[nH]/c(=C/c2ccc(OCc3ccccc3)cn2)c(=O)[nH]/c1=C/c1ccccc1	Yes
Oc1ccc2ccccc2c1OCc1nnc(CCCCCCCCc2nnc(COc3c(O)ccc4ccccc34)n2Nc2ccccc2)n1Nc1ccccc1	No
Oc1cc(CN2CCOCCOCCOCCOCC2)c(O)cc1CN1CCOCCOCCOCCOCC1	No
Fc1ccc(-c2sc(-c3cccs3)cc2Cc2cccs2)cc1	No
CCOCc1cc(=O)c2c(OC)cc3c(c2o1)CCC(C)(C)O3	No
C=CC(=O)N1C/C(=C\c2ccc(Cl)cc2)C(=O)/C(=C/c2ccc(Cl)cc2)C1	Yes
NC(=O)c1ncn(C2CCC(CP(=O)(O)O)C2)c1N (centres undefined)	No

###

Tested on: SF-295
Experiment: NCI tumour cell line growth inhibition, 48 h
Calls of active or inactive are those of the source. No stated cut-off is given here; in the data, active = GI50 up to about 1.1 µM and inactive = higher.
Possible outcomes: Y (active), N (inactive)

Molecule	Measured On	Qualitative Label
O=C(O)C(SC1=NC(=O)C2(NN1)c1ccccc1-c1ccccc12)SC1=NC(=O)C2(NN1)c1ccccc1-c1ccccc12	SF-295	N
Cc1ccc(S(=O)(=O)NC(=O)Nc2c(S(N)(=O)=O)cc(S(N)(=O)=O)c(Cl)c2Cl)cc1	SF-295	N
COCn1cnc2c(=O)nc(SC)n(-c3ccccc3)c21	SF-295	N
CN(C)CC(NC(NCS)C(=O)NCCNc1ccc(NCCNC(=O)C(NCS)NC(CN(C)C)OCCl)c2c1C(=O)c1c(O)ccc(O)c1C2=O)OCCl (stereo not given)	SF-295	Y
O=C(OCCCl)C1OC(n2cc(F)c(=O)[nH]c2=O)CC1O (stereo not given)	SF-295	N

###

Each item that follows carries a reported GI50.
Test system: LOX IMVI
Experiment: NCI tumour cell line growth inhibition, 48 h
Activity calls are given as the source filed them. Cut-off read from the data, not from the text of the source: active = GI50 up to about 1.1 µM and inactive = higher.

Compound	Measured On	GI50
COc1ccc2cccc(C(=N)c3ccc(C)c4c3CCC4)c2c1	LOX IMVI	11.7 µM (inactive)
CC(C)(CO)NC(=O)c1cccc(C(=O)NC(C)(C)CO)c1Br	LOX IMVI	> 100 µM (inactive)
OC1(c2ccccc2)CC2CCC(C1)N2CCCC(O)(c1ccccc1)c1ccccc1 (stereo unspecified)	LOX IMVI	10.6 µM (inactive)
CC(C)(C)c1cc(C2NC(=O)NC2=O)cc(C(C)(C)C)c1O (stereo unspecified)	LOX IMVI	> 100 µM (inactive)
COC(=O)C1C(OC(=O)C(Cl)(c2ccccc2)c2ccccc2)CC2CCC1N2C (stereo unspecified)	LOX IMVI	> 100 µM (inactive)
CN(C)N1C(=O)SCC(c2ccccc2)(c2ccccc2)C1=O	LOX IMVI	> 100 µM (inactive)
CSc1ncc2c(n1)-c1ccccc1OC2NC1CC1 (stereo unspecified)	LOX IMVI	92 µM (inactive)
COc1c(C(C)(C)C)cc(CC2C(=O)C=CC2=O)cc1C(C)(C)C	LOX IMVI	11.1 µM (inactive)
CC(C)/C(Cl)=N\OC(=O)NNc1ccccc1	LOX IMVI	12.6 µM (inactive)
Cc1cn(C2CC(O)C(COC(N)=O)O2)c(=O)[nH]c1=O (stereo unspecified)	LOX IMVI	> 100 µM (inactive)
Cc1nc2[nH]ccn2c(=O)c1CCO	LOX IMVI	> 10 µM (inactive)

###

System: SNB-19
Assay: NCI tumour cell line growth inhibition, 48 h
Calls of active or inactive are those of the source. Rule as the data show it: active = GI50 up to about 1.1 µM and inactive = higher.
Catalogue of compounds with associated GI50
Parameter Measured: GI50

Compound	Measured On	Result
COC(=O)C1(C(=O)OC)CC(=O)c2cc3c(cc2-c2c(cc(OC)c(OC)c2OC)C1)OCO3	SNB-19	55.3 µM (inactive)
COc1ccc(/C=C/c2onc3c(=O)n(C)nc(-c4ccccc4)c23)cc1	SNB-19	> 100 µM (inactive)
CN(C)C(=O)C(NCCO)c1ccccc1 (stereo unspecified)	SNB-19	> 100 µM (inactive)
CC(C)(Cl)C(Br)CCC(Br)(CCl)C(Cl)CBr (stereo unspecified)	SNB-19	> 10 µM (inactive)
C/C(=C1/N=C(c2ccccc2)OC1=O)c1cccs1	SNB-19	> 100 µM (inactive)
O=C(O)c1cc(=O)c2[nH]c3ccccc3c2s1	SNB-19	> 100 µM (inactive)
CCOC(=O)c1csc(C(CSCc2ccc(OC)cc2)N2C(=O)c3ccccc3C2=O)n1 (stereo unspecified)	SNB-19	> 100 µM (inactive)
CCCCCCc1nn2c(-c3ccc(C)cc3)nnc2s1	SNB-19	> 100 µM (inactive)
CCOC(=O)CC[C@H](N)C(=O)N[C@H](Cc1ccc(N(CCCl)CCCl)cc1)C(=O)OCC	SNB-19	16.1 µM (inactive)
C=C(Cl)C(C)(Cl)CCC(Cl)C(C)(C)Cl (stereo unspecified)	SNB-19	> 100 µM (inactive)
O=C(Nc1nc(C23CC4CC(CC(C4)C2)C3)cs1)c1cc2c(ccc3ccccc32)oc1=O	SNB-19	> 100 µM (inactive)
COc1c(C)c(C/C=C(\C)CC/C=C(\C)CC/C=C(\C)CCC=C(C)C)c(OC)c2ccccc12	SNB-19	> 100 µM (inactive)
N#C/C(=C/n1c(=S)[nH]c2ccccc21)C(N)=O	SNB-19	> 100 µM (inactive)
O=C1C(Cl)C(c2cccc(O)c2)N1n1cnc2ccccc2c1=O (stereo unspecified)	SNB-19	49.5 µM (inactive)
N[C@H](C(=O)O)[C@@H](Cl)CC(=O)O	SNB-19	> 100 µM (inactive)
CN(C)CCCNC(=O)c1c(-c2cccnc2)cnc2ccccc12	SNB-19	> 100 µM (inactive)

###

Test system: ACHN
Assay: NCI tumour cell line growth inhibition, 48 h
The source made the active and inactive calls. Cut-off read from the data, not from the text of the source: active = GI50 up to about 1.1 µM and inactive = higher.
Parameter Measured: GI50

Compound	Parameter Measured	Result
CCc1ccc(Nc2cc(=O)[nH]c(SCc3ccccc3)n2)cc1	GI50	50.7 µM (inactive)
N#CCCN(CCC#N)c1ccc(/C=C2\N=C(c3cc([N+](=O)[O-])ccc3Cl)N(S(=O)(=O)c3ccccc3)C2=O)cc1	GI50	> 100 µM (inactive)
CCS(CC)(CC)CC1CCCC2=CCC(P(=O)(c3ccccc3)c3ccccc3)CC21 (stereo not given)	GI50	9.02 µM (inactive)
COc1cccc2c1C(=N)c1c(O)c3c(c(O)c1C2=O)C[C@@](O)(C(C)=O)C[C@@H]3OC1CC(N)C(O)C(C)O1 (stereo not given in full)	GI50	0.244 µM (active)
CC1=C(C(=O)OCc2ccncc2)C(C2=C(C)SCCS2)C(C(=O)OCc2ccncc2)=C(C)N1	GI50	34.5 µM (inactive)
O=C(Nc1ccc(F)cc1)C(=O)C(C1OC(=O)c2ccccc21)[N+](=O)[O-] (stereo not given)	GI50	> 100 µM (inactive)
CCCc1nc2c(n1CC)C(=O)c1ccccc1C2=O	GI50	40.3 µM (inactive)
COc1cccc(/C=C\c2ccc(O)cc2)c1	GI50	3.64 µM (inactive)
CCN(CC)CCCC(C)Nc1ccnc2cc3ccccc3cc12 (stereo not given)	GI50	3.72 µM (inactive)
NC(CSCc1ccccc1)C(=O)O (stereo not given)	GI50	> 100 µM (inactive)
O=C(NCCCCCCNC(=O)n1cc(F)c(=O)[nH]c1=O)NCCCOCCOCCOCCOCCOCCOCCOCCOCCOCCOCCOCCOCCOCCOCCOCCOCCOCCOCCOCCOCCOCCCNC(=O)C(O)C(O)C(OC1OC(CO)C(O)C(O)C1O)C(O)CO (stereo not given)	GI50	10.3 µM (inactive)
Cc1ccc(-n2c3nc(=O)n(C)c(=O)c-3nc3ccccc32)cc1	GI50	3.26 µM (inactive)
CC(=O)N1C(=O)/C(=C\C(=O)c2ccc(Cl)cc2)c2ccccc21	GI50	9.31 µM (inactive)
CC(=O)OCc1cc(OC(C)=O)cnc1COC(C)=O	GI50	> 100 µM (inactive)
CN(C)C(=O)C(NCCO)c1ccccc1 (stereo not given)	GI50	> 100 µM (inactive)
CC1=NNC(=O)C1C1C(=O)NN=C(c2c[nH]c3ccccc23)C1Br (stereo not given)	GI50	42.3 µM (inactive)
CCCC(=O)Nc1cc(/C=C/C(=O)N2CC(CCl)c3c2cc([N+](=O)[O-])c2ccccc32)n(C)c1 (stereo not given)	GI50	1.32 µM (inactive)
O=C(O)CSc1nnc(/C=C/c2ccccc2)[nH]1	GI50	> 100 µM (inactive)
COC(=O)/C=C(/OC)[C@H](C)[C@H](/C=C/c1csc(-c2csc(C(C)C)n2)n1)OC	GI50	0.124 µM (active)
CCCCCCc1nn2c(-c3ccc(C)cc3)nnc2s1	GI50	> 100 µM (inactive)
